From: the NIST ThermoML archive (doi:10.1016/j.jct.2015.05.014)

method description: activity coefficient (dimensionless); of the first substance listed, at infinite dilution; xn = mol fraction of the nth substance listed
measurement context: 358.15 K; 100 kPa; Liquid; Chromatography; x1 = 0
Decision: activity coefficient compared against 30; not below it gives Yes, below it gives No.

Data request: Is activity coefficient at least 30? Consider C=CCCCCC [1-heptene] + CC(O)C(=O)[O-].CC[N+]1(C)CCCC1
Data returned: Yes

Data request: Is activity coefficient at least 30? Consider C=CCCCCCCCC [1-decene] + CC(O)C(=O)[O-].CC[N+]1(C)CCCC1
Data returned: Yes

Data request: Is activity coefficient at least 30? Consider CCCCCCCC [octane] + CC(O)C(=O)[O-].CC[N+]1(C)CCCC1
Data returned: Yes

Next:
Data request: Is activity coefficient at least 30? Consider Cc1ccccc1C [1,2-dimethylbenzene] + CC(O)C(=O)[O-].CC[N+]1(C)CCCC1
Data returned: No

Data request: Is activity coefficient at least 30? Consider c1ccccc1 [benzene] + CC(O)C(=O)[O-].CC[N+]1(C)CCCC1
Data returned: No

Data request: Is activity coefficient at least 30? Consider CC(C)OC(C)C [diisopropyl ether] + CC(O)C(=O)[O-].CC[N+]1(C)CCCC1
Data returned: Yes

Data request: Is activity coefficient at least 30? Consider CCC(=O)OC [methyl propanoate] + CC(O)C(=O)[O-].CC[N+]1(C)CCCC1
Data returned: No

Data request: Is activity coefficient at least 30? Consider C1CCCC1 [cyclopentane] + CC(O)C(=O)[O-].CC[N+]1(C)CCCC1
Data returned: No

Data request: Is activity coefficient at least 30? Consider CCCC(=O)CC [3-hexanone] + CC(O)C(=O)[O-].CC[N+]1(C)CCCC1
Data returned: No

Data request: Is activity coefficient at least 30? Consider C=CCCCC [hex-1-ene] + CC(O)C(=O)[O-].CC[N+]1(C)CCCC1
Data returned: Yes

Data request: Is activity coefficient at least 30? Consider C1CCCCCC1 [cycloheptane] + CC(O)C(=O)[O-].CC[N+]1(C)CCCC1
Data returned: Yes

Data request: Is activity coefficient at least 30? Consider C#CCCCCC [1-heptyne] + CC(O)C(=O)[O-].CC[N+]1(C)CCCC1
Data returned: No

Data request: Is activity coefficient at least 30? Consider CCC[N+](=O)[O-] [1-nitropropane] + CC(O)C(=O)[O-].CC[N+]1(C)CCCC1
Data returned: No

Data request: Is activity coefficient at least 30? Consider Cc1cccc(C)c1 [1,3-dimethylbenzene] + CC(O)C(=O)[O-].CC[N+]1(C)CCCC1
Data returned: No

Data request: Is activity coefficient at least 30? Consider CC#N [acetonitrile] + CC(O)C(=O)[O-].CC[N+]1(C)CCCC1
Data returned: No

Data request: Is activity coefficient at least 30? Consider CC1CCCCC1 [methylcyclohexane] + CC(O)C(=O)[O-].CC[N+]1(C)CCCC1
Data returned: Yes

Data request: Is activity coefficient at least 30? Consider CCOC(C)=O [ethyl acetate] + CC(O)C(=O)[O-].CC[N+]1(C)CCCC1
Data returned: No

Data request: Is activity coefficient at least 30? Consider CCCOCCC [dipropyl ether] + CC(O)C(=O)[O-].CC[N+]1(C)CCCC1
Data returned: Yes

Data request: Is activity coefficient at least 30? Consider CCC(C)CC [3-methylpentane] + CC(O)C(=O)[O-].CC[N+]1(C)CCCC1
Data returned: Yes

Data request: Is activity coefficient at least 30? Consider c1ccncc1 [pyridine] + CC(O)C(=O)[O-].CC[N+]1(C)CCCC1
Data returned: No

Data request: Is activity coefficient at least 30? Consider C#CCCCCCC [1-octyne] + CC(O)C(=O)[O-].CC[N+]1(C)CCCC1
Data returned: No
